Each recorded value in this set is attributed to patent US20240293553A1.

- system-under-test: T1, murine P-selectin-Fc chimera (murine, UniProt Q01102 42-709)
- T1 construct: Bought from R&D Systems; also called mouse P-selectin chimera; species-specific P-selectin-Fc chimera; not shown: Fc part
- T1 sequence (looked up): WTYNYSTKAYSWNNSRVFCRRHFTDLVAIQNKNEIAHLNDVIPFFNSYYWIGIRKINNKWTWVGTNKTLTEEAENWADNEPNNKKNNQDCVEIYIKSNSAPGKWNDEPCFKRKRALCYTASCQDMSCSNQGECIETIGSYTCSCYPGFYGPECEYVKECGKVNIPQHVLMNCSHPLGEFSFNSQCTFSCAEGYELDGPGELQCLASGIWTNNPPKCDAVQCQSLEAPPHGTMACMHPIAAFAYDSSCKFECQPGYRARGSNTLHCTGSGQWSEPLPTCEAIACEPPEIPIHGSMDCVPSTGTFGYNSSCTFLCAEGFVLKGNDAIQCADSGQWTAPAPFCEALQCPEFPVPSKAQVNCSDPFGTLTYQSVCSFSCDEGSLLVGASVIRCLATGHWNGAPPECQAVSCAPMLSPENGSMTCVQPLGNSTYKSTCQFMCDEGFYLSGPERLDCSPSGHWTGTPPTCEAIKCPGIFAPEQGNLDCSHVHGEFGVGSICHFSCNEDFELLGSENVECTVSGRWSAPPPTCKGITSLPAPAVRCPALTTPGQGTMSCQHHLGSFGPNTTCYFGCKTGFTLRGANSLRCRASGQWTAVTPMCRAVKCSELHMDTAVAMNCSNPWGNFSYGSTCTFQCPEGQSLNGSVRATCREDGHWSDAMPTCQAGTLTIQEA
- assay: flow cytometry competition: inhibition of murine P-selectin-Fc chimera (3 µg/mL) binding to murine monocytes
pIC50: −log10 of the molar value. Square brackets hold non-standard residues; d marks the D form. Side chains are listed from the residue outwards. Ends that are not written are not given here. mPEG 40 kDa (SVA) = 40 kDa methoxy poly(ethylene glycol) succinimidyl valerate (mPEG-SVA); triazole linker = not defined here; Fs = not defined here
Readings of pIC50 for the listed binders

binder	pIC50
KEFEFLDFDFLPETEPL (not fully specified (residues 3, 5, 8, 14); also: biotinylated for SPR, place not given here, Synthetic glycosulfonopeptide analogue of the N-terminus of PSGL-1; also called compound 1) [G4]	5.00
{mPEG 40 kDa (SVA)}-KE[Fs]E[Fs]LD[Fs]DFLPET([triazole linker-sLe^x])EPL (reading uncertain, also called PEG-G4; pegylated click compound) [PEG40-G4 (P-G4)]	5.22
